This listing pairs compounds with measured composite z-score.
TEST_DETAILS: COS7 lysate on small-molecule microarray, probe aHis, 635 nm (AID 1123);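 also: z-score combines 667nm fluorescence intensity with signal-to-noise per printed compound spot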
CONDITION_INFO: COS7 cell lysate, fluorescence, higher = more signal
Form field (numeric): enter value without unit.

Sample records with composite z-score:
[
  {
    "INPUT_SMILES": "C=C(CC1([C@@H](NP(=O)(c2ccccc2)c2ccccc2)[C@H]2C[C@@H]2CCCC)CC1)c1ccccc1",
    "composite z-score": 2.67
  },
  {
    "INPUT_SMILES": "CCCC[C@H]1OB(O)C[C@H]2C1=C(COC)C[C@H]1C(=O)N(C)C(=O)[C@H]12",
    "composite z-score": 0.502
  },
  {
    "INPUT_SMILES": "Cc1ccc([C@@H]2C[C@@H](Sc3ccccc3)[C@H](C(=O)O)CN2S(=O)(=O)c2ccc(C)cc2)cc1",
    "composite z-score": 2.89
  },
  {
    "INPUT_SMILES": "C[C@@]1([C@@H](NC(=O)c2ccc(-c3ccccc3)cc2)c2ccc(Cl)cc2)C[C@H]1C1CCCCC1",
    "composite z-score": 2.21
  },
  {
    "INPUT_SMILES": "C[N+](C)(C)CCCC[C@@H]1NC(=O)[C@H]2C[C@@H](C(=O)NCCCCCCNC(=O)CS)[C@@H](c3cccc(OCCO)c3)N2C1=O",
    "composite z-score": 1.8
  }
]

Ask: Sample CN(C)C(=O)[C@]1(Cc2ccccc2N=[N+]=[N-])N=C(c2ccc(OCCCO)cc2)O[C@@H]1c1ccccc1N=[N+]=[N-] — what was its composite z-score?
Reply: 2.85

Ask: Need composite z-score, item O=C1[C@@]23C=C(Br)[C@H](C[C@@H]2CCOC3)[C@@]12CO2
Reply: -0.128

Ask: # lookup: composite z-score of COC(=O)C[C@H]1O[C@]2(C(=O)N(C)c3ccccc32)[C@@H](C)[C@@H]1[Si](C)(C)F
Reply: 0.597

====

TEST_DETAILS: small-molecule binders of probe aInhba, primary screen, biochemical, small-molecule microarray, 635/667 nm fluorescence (AID 1148);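 also: score merges 667nm spot fluorescence with signal-to-noise for antibody binding to printed compounds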
CONDITION_INFO: higher = more signal
Mark NO for composite z-score values under -0.04, and YES for everything at or above.

[
  {
    "MOLECULE": "CC(C)N1C(=O)[C@@]2(Cc3ccccc31)c1ccccc1C(=O)N(Cc1ccccc1Cl)[C@H]2c1ccc(CO)cc1",
    "CLASS_LABEL": "NO"
  },
  {
    "MOLECULE": "CC(C)=CCN[C@H](CO)c1ccccc1",
    "CLASS_LABEL": "YES"
  },
  {
    "MOLECULE": "C=CCOC(=O)[C@H]1[C@@H]2C(=O)O[C@@H](c3ccccc3)[C@@H](c3ccccc3)N2[C@@H](c2ccc(OCCOC(=O)[C@H]3C[C@H]4C(=O)N[C@@H](CCCCNC(C)=O)C(=O)N4[C@H]3c3ccc(O)cc3)cc2)[C@]12C(=O)Nc1ccc(I)cc12",
    "CLASS_LABEL": "YES"
  },
  {
    "MOLECULE": "CC1(C)[C@@H]2CC(C(O)C3C=CC4C(=O)N(Cc5ccccc5)C(=O)C4N3n3cnnc3)=C[C@H]1C2 (stereo partly drawn)",
    "CLASS_LABEL": "YES"
  },
  {
    "MOLECULE": "COCCOC(=O)N1C(=O)[C@@]2(c3cc(C#CCC(C(=O)OC)C(=O)OC)ccc31)[C@H](C(=O)N1CCN(c3ncccn3)CC1)[C@H]1C(=O)O[C@H](c3ccccc3)[C@H](c3ccccc3)N1[C@@H]2c1ccccc1OCCO",
    "CLASS_LABEL": "YES"
  }
]

Ask: Does composite z-score meet or surpass -0.04 for O=C(c1ccccc1)N1C(=O)[C@@]2(Cc3ccccc31)N=C(c1ccc(OCCCO)cc1)O[C@H]2c1ccccc1 ?
Reply: YES

Ask: Does the molecule COC(=O)[C@@]1(Cc2ccc(OC)cc2)[C@H]2c3cc(C(=O)N(C)C)n(C)c3C[C@H]2CN1C(=O)c1ccccc1 have recorded composite z-score that is -0.04 or more?
Reply: YES

Ask: Reported composite z-score reaches at least -0.04 for C=CCN1C(=O)[C@]2(O[C@H](CCn3cc([C@H](O)c4ccccc4)nn3)[C@@H]([Si](C)(C)c3ccc(OC)cc3)[C@@H]2C)c2ccccc21 ?
Reply: NO

Ask: In plain terms: is recorded composite z-score at least -0.04 for COc1ccc([Si](C)(C)[C@H]2[C@H](CC(=O)N3Cc4ccccc4C[C@H]3CO)O[C@@]3(C(=O)N(Cc4cccc(N5CCC5=O)c4)c4ccccc43)[C@@H]2C)cc1 ?
Reply: YES

Ask: Has CCOC(=O)C[C@H]1[C@H](OC(=O)c2ccc(C(=O)c3ccccc3)cc2)[C@@H](NC(=O)c2ccccc2)c2cc(OCCCO)ccc2N1C(=O)c1ccc2ccccc2n1 a recorded composite z-score greater than or equal to -0.04?
Reply: NO

Ask: I'd appreciate it if you could say whether O=C1NC(=O)C2C1C=CC(C(O)c1cc(C(F)(F)F)cc(C(F)(F)F)c1)N2Nc1ccccn1 (stereo not drawn) has composite z-score at least equal to -0.04.
Reply: YES

Ask: Could you please find out whether COC(=O)[C@@]1(Cc2ccccc2)[C@H]2c3cc(C(=O)N4CCCC4)n(Cc4ccc(S(C)(=O)=O)cc4)c3C[C@H]2CN1C(=O)c1ccccc1 has composite z-score that meets -0.04 or exceeds it?
Reply: YES

Ask: Check the entry C[N+](C)(C)CCCCCCNC(=O)[C@@H]1C[C@@H]2C(=O)N[C@@H](Cc3ccccc3)C(=O)N2[C@@H]1c1cccc(OCCO)c1 : does composite z-score equal or exceed -0.04?
Reply: NO

====

System: Sam68 (KHDRBS1)
TEST_DETAILS: Sam68 small-molecule binders, primary screen, biochemical, small-molecule microarray, 635 nm fluorescence (AID 1125);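 also: score merges 667 nm channel intensity with signal to noise over triplicate slides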
CONDITION_INFO: small-molecule microarray binding, higher = more signal
Rule: composite z-score of 1 or more gives Y; anything lower gives N.

[
  {
    "MOLECULE": "CN1C(=O)C2C=CC(C(O)c3ccccc3)N(N(c3ccccc3)c3ccccc3)C2C1=O (configuration not stated)",
    "CLASS_LABEL": "N"
  },
  {
    "MOLECULE": "COCCOC(=O)N1C(=O)[C@@]2(c3ccccc31)[C@H](c1ccc(O)cc1)N1[C@H](c3ccccc3)[C@H](c3ccccc3)OC(=O)[C@H]1[C@@H]2C(=O)Nc1nc2ccccc2s1",
    "CLASS_LABEL": "Y"
  },
  {
    "MOLECULE": "COCCCNC(=O)[C@@]1(C)c2ccccc2C(=O)N(C(C)C)[C@H]1c1ccc(CO)cc1",
    "CLASS_LABEL": "Y"
  },
  {
    "MOLECULE": "CN(C)CCCCCCNC(=O)[C@H]1C[C@H]2C(=O)N[C@@H](CCCCN)C(=O)N2[C@H]1c1cccc(OCCO)c1",
    "CLASS_LABEL": "Y"
  },
  {
    "MOLECULE": "COc1cc2c(cc1OC)CN(C(=O)[C@H]1[C@@H]3C(=O)O[C@@H](c4ccccc4)[C@@H](c4ccccc4)N3[C@@H](c3ccc(O)cc3)[C@]13C(=O)Nc1ccc(C#CCCO)cc13)CC2",
    "CLASS_LABEL": "Y"
  },
  {
    "MOLECULE": "C[N+](C)(C)CCCCCCNC(=O)[C@@H]1C[C@@H]2C(=O)N[C@@H](Cc3ccccc3)C(=O)N2[C@@H]1c1cccc(OCCO)c1",
    "CLASS_LABEL": "Y"
  }
]

As a next step, examine the molecule that follows.
Ask: Can C=C(COC)C(=O)CC[C@@H](OC(C)=O)c1ccc(CO)o1 be said to have composite z-score at or above 1?
Reply: N

====

# composite z-score annotations
SYSTEM_TESTED: Concanavalin-A (Canavalia ensiformis)
TEST_DETAILS: ConA small-molecule binders, primary screen, artefact control for SMM control protein annotation, biochemical, small-molecule microarray, Alexa647 label, 635 nm (AID 1127);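 also: z combines 667 nm emission intensity with signal-to-noise across three replicate slides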
CONDITION_INFO: ConA-A647 binding fluorescence, higher = more signal
Response field accepts a number only; no unit should be typed.

Below are worked cases with known answers.
[
  {
    "COMPOUND": "COc1ccc([Si](C)(C)[C@H]2[C@H](CCO)O[C@@]3(C(=O)N(Cc4ccc(N(C=O)c5ccccc5)cc4)c4ccccc43)[C@@H]2C)cc1",
    "MEASUREMENT_LABEL": "composite z-score",
    "RECORDED_RESULT": 0.538
  },
  {
    "COMPOUND": "COCCOC(=O)N1C(=O)[C@@]2(c3cc(C#Cc4ccc(OC)cc4)ccc31)[C@H](c1ccc(O)cc1)N1[C@H](c3ccccc3)[C@H](c3ccccc3)OC(=O)[C@H]1[C@@H]2C(=O)N1CCc2cc(OC)c(OC)cc2C1",
    "MEASUREMENT_LABEL": "composite z-score",
    "RECORDED_RESULT": 1.12
  },
  {
    "COMPOUND": "CCCC[C@H]1OB(O)C[C@H]2C1=C(COC)Cn1c(=O)n(-c3ccccc3)c(=O)n12",
    "MEASUREMENT_LABEL": "composite z-score",
    "RECORDED_RESULT": -0.317
  }
]

Ask: # input compound: O=C(NCCN1CCOCC1)C1N=C(c2ccc(OCCCO)cc2)N(c2ccccc2)O1 (stereo not drawn) ; wanted: its composite z-score
Reply: 0.691

Ask: GET /values?readout=composite z-score&item= O=C(NC1CC1)[C@@H]1c2ccccc2C(=O)N(Cc2ccccc2Cl)[C@H]1c1ccc(CO)cc1
Reply: 1.02

Ask: Suppose we examine the compound OCCCC1=CC(c2cccs2)N(Cc2cc3c(cc2Br)OCO3)CC1 (stereo not drawn) ; what composite z-score value has been reported?
Reply: 0.795

Ask: Param item = Oc1ccc2cc[n+](Cc3sc4ccccc4c3Cl)cc2c1 ; retrieve measured composite z-score.
Reply: 0.376

Ask: Need composite z-score, item C=C(COC)/C(=C/C[C@H](OC(C)=O)c1ccc(CO)o1)c1cc(C(=O)OC)ccc1OC
Reply: -0.714
